Parameter Ki: see the listing below.
Molecular target: κ receptor (Homo sapiens (Human))
Experiment: Competitive Kappa receptor binding assay (3H-U69593)
Square brackets hold non-standard residues; d marks the D form. Peptide text beside a SMILES is read from it. * marks the point of attachment. dPhLac = O=C(O)[C@H](O)Cc1ccccc1; X4 = COC(=O)NC1CCN(*)CC1
quantity.measured: Ki

compound	recorded.result
COC(=O)NC1CCN(C(=O)[C@@H](CCCCN)NC(=O)[C@@H](CC(C)C)NC(=O)[C@@H](Cc2ccccc2)NC(=O)[C@H](O)Cc2ccccc2)CC1 [Compound 11] (H-[dPhLac][dF][dL][dK]-X4)	0.94 nM
CC(C)C[C@@H](NC(=O)[C@@H](Cc1ccccc1)NC(=O)N(CCN)Cc1ccccc1)C(=O)N[C@H](CCCCN)C(=O)N1CCNCC1 [Compound 40]	0.58 nM
CC(C)C[C@@H](NC(=O)[C@@H](Cc1ccccc1)NC(=O)N(CCN)Cc1ccccc1)C(=O)N[C@H](CCCCN)C(=O)N1CCC2(CC1)NC(=O)NC2=O [Compound 29]	0.63 nM

----------
Parameter EC50: see the listing below.
Target: κ-opioid receptor (Kappa) (Homo sapiens (Human), UniProt P41145)
Test: In vitro functional assay, HTRF cAMP-Gi in CHO-K1-OPRK1 cells
Format: cell-based
quantity.measured: EC50 (nM)

molecule	recorded.result
CC(C)C[C@@H](NC(=O)[C@@H](Cc1ccccc1)NC(=O)N(C)C(CN)c1ccccc1)C(=O)N[C@H](CCCCN)C(=O)N1CCOCC1 (stereo partly drawn)	0.39
CC(C)C[C@@H](NC(=O)[C@@H](Cc1ccccc1)NC(=O)N(C)C(CN)c1ccccc1)C(=O)N[C@H](CCCCN)C(=O)N1CCS(=N)(=O)CC1 (stereo partly drawn)	1.1
CC(C)C[C@@H](NC(=O)[C@@H](Cc1ccccc1)NC(=O)N(CCN)Cc1ccccc1)C(=O)N[C@H](CCCCN)C(=O)N1CCC(N)(C(=O)O)CC1	0.52
CC(C)C[C@@H](NC(=O)[C@@H](Cc1ccccc1)NC(=O)[C@H](N)Cc1ccccc1)C(=O)N[C@H](CCCCN)C(=O)N1CCS(=N)(=O)CC1	0.52
CC(C)C[C@@H](NC(=O)[C@@H](Cc1ccccc1)NC(=O)N(CCN)CC1CC1)C(=O)N[C@H](CCCCN)C(=O)N1CCC(N)(C(=O)O)CC1	12
COC(=O)NC1CCN(C(=O)[C@@H](CCCCN)NC(=O)[C@@H](CC(C)C)NC(=O)[C@@H](Cc2ccccc2)NC(=O)[C@H](N)Cc2ccccc2)CC1	0.05

----------
Experiment: in vivo
Conditions: male, ICR, mouse, iv
quantity.measured: ED50

smiles.input	recorded.result
CC(C)C[C@@H](NC(=O)[C@@H](Cc1ccccc1)NC(=O)[C@H](N)Cc1ccccc1)C(=O)N[C@H](CCCCN)C(=O)N1CCS(=N)(=O)CC1	0.5 mg/kg

----------
Assay: Autonomous activity test in mice
Conditions: male, ICR, mouse, in vivo, iv
Square brackets hold non-standard residues; d marks the D form. Peptide text beside a SMILES is read from it. * marks the point of attachment. Gly(N-(2R-Ph-propyl)) = C[C@@H](CNCC(=O)O)c1ccccc1; Piperidin1yl(4-NH2,4-COOH) = NC1(C(=O)O)CCN(*)CC1; dPhLac = O=C(O)[C@H](O)Cc1ccccc1; X4 = COC(=O)NC1CCN(*)CC1
Parameter ED50 at 30 min: see the listing below.
quantity.measured: ED50 at 30 min (mg/kg)

molecule	quantity.measured	unit.tag	recorded.result
CC(C)C[C@@H](NC(=O)[C@@H](Cc1ccccc1)NC(=O)N(CCN)Cc1ccccc1)C(=O)N[C@H](CCCCN)C(=O)N1CCS(=O)(=O)CC1 [Compound 21]	ED50 at 30 min	mg/kg	1.42
COC(=O)C1(N)CCN(C(=O)[C@@H](CCCCN)NC(=O)[C@@H](CC(C)C)NC(=O)[C@@H](Cc2ccccc2)NC(=O)N(CCN)Cc2ccccc2)CC1 [Compound 13-2]	ED50 at 30 min	mg/kg	2.75
COC(=O)NC1CCN(C(=O)[C@@H](CCCCN)NC(=O)[C@@H](CC(C)C)NC(=O)[C@@H](Cc2ccccc2)NC(=O)[C@H](O)Cc2ccccc2)CC1 [Compound 11] (H-[dPhLac][dF][dL][dK]-X4)	ED50 at 30 min	mg/kg	9.6
COC(=O)NC1CCN(C(=O)[C@@H](CCCCN)NC(=O)[C@@H](CC(C)C)NC(=O)[C@@H](Cc2ccccc2)NC(=O)[C@H](N)Cc2ccccc2)CC1 [Compound 1A]	ED50 at 30 min	mg/kg	1.08
CC(C)C[C@@H](NC(=O)[C@@H](Cc1ccccc1)NC(=O)[C@H](N)Cc1ccccc1)C(=O)N[C@H](CCCCN)C(=O)N1CCC2(CC1)OC(=O)Nc1ncccc12 [Compound 4A]	ED50 at 30 min	mg/kg	1.25
CC(C)C[C@@H](NC(=O)[C@@H](Cc1ccccc1)NC(=O)N(CCN)Cc1ccccc1)C(=O)N[C@H](CCCCN)C(=O)N1CCC(N)(C(=O)O)CC1 [Compound 13]	ED50 at 30 min	mg/kg	2.83
CC(C)C[C@@H](NC(=O)[C@@H](Cc1ccccc1)NC(=O)CNC[C@H](C)c1ccccc1)C(=O)N[C@H](CCCCN)C(=O)N1CCC(N)(C(=O)O)CC1 [Comparative Example 1B, reference compound] (H-[Gly(N-(2R-Ph-propyl))][dF][dL][dK]-{Piperidin1yl(4-NH2,4-COOH)})	ED50 at 30 min	mg/kg	0.59
